Cited source: ChEMBL document CHEMBL5665443

Let's look at some compounds and their measured inhibition.
Molecular target: Endonuclease 8-like 2 (Homo sapiens) (UniProt Q969S2);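 also: fluorescence at 594 nm reports NEIL2 cutting and release of a quenched double-stranded DNA oligo substrate, reduced signal read as inhibition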
Sequence (Q969S2 whole entry): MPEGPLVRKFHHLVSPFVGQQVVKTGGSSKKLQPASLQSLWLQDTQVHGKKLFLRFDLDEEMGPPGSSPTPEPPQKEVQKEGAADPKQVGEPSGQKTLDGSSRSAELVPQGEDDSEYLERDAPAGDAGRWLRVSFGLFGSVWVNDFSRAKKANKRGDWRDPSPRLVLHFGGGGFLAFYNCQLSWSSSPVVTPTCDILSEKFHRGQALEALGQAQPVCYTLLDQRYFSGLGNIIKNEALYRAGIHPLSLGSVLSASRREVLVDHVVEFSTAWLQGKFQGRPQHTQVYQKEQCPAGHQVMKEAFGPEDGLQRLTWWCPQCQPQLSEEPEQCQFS
Conditions: Compound Concentration 10.0 uM, Hit No
Description: Inhibition of NEIL2 by quantifying inhibition of NEIL2-mediated cleavage and dissociation of quenched duplex DNA oligonucleotides, measured as fluorescence at 594 nm.
Numeric only. Scale: %

O=C(O)Cn1c(C(=O)Nc2nc(-c3ccccc3Cl)cs2)cc2ccccc21 = 0.265
Cc1noc([C@H]2C[C@@H](c3ccc(C(F)(F)F)cc3)CN(C(=O)N3CCS(=O)(=O)C3)C2)n1 = -5.59
CCNC(=O)[C@H]1O[C@@H](n2cnc3c(N)nc(NCCc4ccc(CCC(=O)O)cc4)nc32)[C@H](O)[C@@H]1O = -6.46
CCCCN(CCCC)C(=O)CN1C[C@@H](c2cc(OC)c3c(c2)OCO3)[C@H](C(=O)O)[C@H]1CC(C)(C)CCC = -4.32

Consider the compound shown here: CCOC(=O)C1Cc2ccccc2CN1C(=O)c1ccc(SC)s1 (stereo not given) What is its recorded inhibition?
4.36

* * *

Target: Single-strand selective monofunctional uracil DNA glycosylase (Homo sapiens) (UniProt Q53HV7);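 also: enzymatic SMUG1 assay coupled with APE1, reading fluorescence at 594 nm released when a quenched double-stranded DNA oligonucleotide substrate is cleaved and separated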
Sequence (Q53HV7 whole entry): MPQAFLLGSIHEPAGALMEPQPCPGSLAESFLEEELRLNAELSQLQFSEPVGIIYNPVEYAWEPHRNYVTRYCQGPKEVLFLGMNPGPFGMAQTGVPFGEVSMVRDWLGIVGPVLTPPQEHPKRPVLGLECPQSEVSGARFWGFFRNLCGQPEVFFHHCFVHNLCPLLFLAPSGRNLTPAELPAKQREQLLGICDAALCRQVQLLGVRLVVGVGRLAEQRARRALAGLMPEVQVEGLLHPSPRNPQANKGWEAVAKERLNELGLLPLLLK
Details: Compound Concentration 10.0 uM, Hit No
Description: Inhibition of SMUG1 by quantifying inhibition of SMUG1-mediated cleavage and dissociation of quenched duplex DNA oligonucleotides, measured as fluorescence at 594 nm. To generate a functional strand incision and increase turn-over this assay is coupled to APE1.
parameter: inhibition (%)
Field format: number, assumed %, no unit text.

The cases that follow already have their inhibition on record.
O=c1cccc2n1C[C@@H]1CNC[C@H]2C1 = -3.8
Cn1c(SCc2ccc(C(C)(C)C)cc2)nc(N)cc1=O = -4.37
Cn1cc(-n2cnc3c(NCc4nc5cc(Cl)c(Cl)cc5[nH]4)nc(N4CCOCC4)nc32)cn1 = 25.7
Cc1cc(-n2nc(Cc3cc(F)cc(C(F)(F)F)c3)nc2C)ccc1C(N)=O = 18.8
Cc1cc(C(=O)N2CCN(C3CN(C(=O)c4ccc(-c5ccccc5)cc4)C3)CC2)no1 = 21.1
N#Cc1ccc(O[C@@H]2c3ccccc3C[C@H]2N2CCC[C@@H](N)C2)c(Cl)c1 = -4.87
COc1cc(Br)c(S(=O)(=O)Nc2ccc(C(F)(F)F)c(O[C@@H]3CCN(C)C3)c2)cc1OC = -0.0706
O=S(=O)(c1ccccc1)c1cnc2c(N3CCNCC3)cccc2c1 = -2.7

Entry under review: `COc1cc(/C=C/C(=O)NCCn2c(C)cc3ccccc32)cc(OC)c1OC` . Reported inhibition?
-8.26

# input molecule: `COc1ccc(Cl)cc1[C@]1(F)C(=O)Nc2cc(C(F)(F)F)ccc21` ; wanted: its inhibition
8.52

* * *

Target: Endonuclease 8-like 1 (Homo sapiens) (UniProt Q96FI4);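 also: fluorescence at 594 nm from quenched duplex DNA oligonucleotides released by NEIL1 cleavage and strand separation, reported as reduction of this enzyme activity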
Sequence (Q96FI4 whole entry): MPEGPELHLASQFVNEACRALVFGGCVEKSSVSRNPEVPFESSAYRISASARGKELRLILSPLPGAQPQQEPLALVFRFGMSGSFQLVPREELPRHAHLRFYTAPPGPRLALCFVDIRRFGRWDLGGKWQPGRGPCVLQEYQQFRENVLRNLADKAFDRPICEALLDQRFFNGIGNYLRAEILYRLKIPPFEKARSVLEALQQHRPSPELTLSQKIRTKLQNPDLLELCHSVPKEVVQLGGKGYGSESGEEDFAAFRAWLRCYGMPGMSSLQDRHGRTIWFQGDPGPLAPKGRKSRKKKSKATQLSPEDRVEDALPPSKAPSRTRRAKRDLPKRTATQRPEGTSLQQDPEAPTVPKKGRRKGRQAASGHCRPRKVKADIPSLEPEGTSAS
Conditions: Compound Concentration 10.0 uM, Hit No
Description: Inhibition of NEIL1 by quantifying inhibition of NEIL1-mediated cleavage and dissociation of quenched duplex DNA oligonucleotides, measured as fluorescence at 594 nm.
Below, each of the compounds is paired with its reported inhibition value.
Just the number in %, nothing appended.

Check out these entries, answers already filled in.
CN(C)CCCc1cc(C(=O)Nc2ccc(-c3ccncc3)cc2)ccc1O = 0.602
CC(C)(C)C1CCc2c(sc(NC(=O)c3ccco3)c2C(=O)O)C1 (stereo not given) = 4.9
CN1CCN(c2cnc3c(C4CCN(C(=O)c5ccc(OC(F)(F)F)cc5N)CC4)ncnc3c2)CC1 = -2.58
CC(C)(O)c1ccc2c(c1)ncn2-c1cccc(-c2ccccc2C#N)c1 = -1.62

Would you mind telling me what inhibition value was observed for `CCOC(=O)c1ncn2c1CN(C)C(=O)c1cc(F)ccc1-2` ?
0.389

* * *

Target: G/T mismatch-specific thymine DNA glycosylase (Homo sapiens);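 also: human TDG cleavage of quenched duplex DNA oligonucleotides coupled to APE1, strand release read as fluorescence at 594 nm, inhibition of TDG activity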
Conditions: Compound Concentration 10.0 uM, Hit No
Description: Inhibition of TDG by quantifying inhibition of TDG-mediated cleavage and dissociation of quenched duplex DNA oligonucleotides, measured as fluorescence at 594 nm. To generate a functional strand incision and increase turn-over this assay is coupled to APE1.
Item-by-item account of inhibition
Give the value in % but do not write % after it.

Consider the reported inhibition for these compounds:
CN(C(=O)/C=C/c1ccoc1)[C@@H]1CC[C@@]2(O)[C@H]3Cc4ccc(O)c5c4[C@@]2(CCN3CC2CC2)[C@H]1O5 = 13.5
Cc1oc2ccccc2c1Cc1cc(I)c(OCC(=O)O)c(I)c1 = 98.9
Cc1cccc(C2CN(C)CCc3c2cc(O)c(O)c3Cl)c1 (configuration not stated) = 27.7
COc1cccc(OC)c1-c1cc(C(=O)NC2(C(=O)O)C3CC4CC(C3)CC2C4)nn1-c1ccnc2cc(Cl)ccc12 (configuration not stated) = 45.2
CC(C)C[C@H](NC(=O)c1cc2ccccc2s1)C(=O)N1CCN(C(=O)[C@H](CO)NS(=O)(=O)c2ccc(Cl)cc2Cl)CC1 = -2.2

Which value of inhibition has been reported for `N#Cc1ccc2[nH]cc(CCCCN3CCN(c4ccc5oc(C(N)=O)cc5c4)CC3)c2c1` in the records?
-5.72
